- protocol.details: DNA intercalators displacing acridine orange, dose response, artefact control for KSHV LANA DNA-binding inhibitor project, biochemical, fluorescence polarization, cherry-picked samples, set 2 (AID 504727)
- run.conditions: Acridine orange-DNA displacement; series mostly up to 35 µM
Active and inactive are the calls of the source.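 How the source made its calls: active means fitted half-maximal concentration AC50 at or below ten times the highest valid tested dose, with signal falling as DNA is displaced (actives reach about 34 µM in these data); inconclusive means flat fit at moderate signal loss, or poor fit quality; inactive means the rest, including signal rising instead of falling.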
Possible outcomes: Yes for active, No for inactive

>>> print(df.to_string())
                                    compound  class
 0  CCOC(=O)C1CCCN(c2ccc([N+](=O)[O-])c3nonc23)C1 (stereo unspecified)    Yes
 1                      CCCCc1ccc(C(=O)O)nc1     No
 2  CCN(CC)C(=O)c1ccc2c(c1)C1C=CCC1C(C(=O)O)N2 (stereo unspecified)     No
 3  CN1CCN(c2ccc([N+](=O)[O-])c3no[n+]([O-])c23)CC1    Yes
 4  Cc1cc(OCC(=O)OC(C)(C)C)c2c3c(c(=O)oc2c1)CCC3     No
 5                Nc1ccc2nonc2c1[N+](=O)[O-]    Yes
 6  O=C(O)c1cccc2c1NC(C(=O)O)C1CC(Sc3ccccc3[N+](=O)[O-])C(Cl)C21 (stereo unspecified)     No
 7  CN(C)C1C(=O)C(C(N)=O)=C(O)C2(O)C(=O)C3=C(O)c4c(O)cccc4C(C)(O)C3C(O)C12 (stereo unspecified)     No
 8  CC(Cc1ccccc1)NC(=O)NC(C)Cc1ccccc1 (stereo unspecified)     No
 9  CCn1c(O)c(N=Nc2cccc(S(=O)(=O)N3CCOCC3)c2)c(=O)n(CC)c1=S     No
10      O=[N+]([O-])c1ccc(N2CCCCCC2)c2nonc12    Yes
